target: full-length VAR2CSA recombinant protein (3D7-DBL1X-6ε) (Plasmodium falciparum 3D7, UniProt Q8I639, strain); test: SPR
pKd: −log10 of the molar value.
measured_quantity: pKd

VHH860 (VHH) VHH: QVQLQESGGGLVQAGGSLRLSCAASGRAFSDYAMGWFRQAPGKERDFVAAISWNGGNTYYSDSVKGRFTISRDNAENTVYLQMNSLKPEDTAVYYCAANDLAVPELLMPRVETYDYWGQGTQVTVSS: 7.55
VHH863 (VHH) VHH: QVQLQESGGGLVQTGGSLRLSCAASGRTFMDYVMGWFRQAPGKEREFVASISWTDSTRYTDSVKGRFTASRDDAEATVYLQMNNLQFEDTAVYYCARGAGRGHSVSAGDYVYWGQGTQVTVSS: 7.34
VHH859 (VHH) VHH: QVQLQESGGGLVQAGGSLRLSCAASGRTFSSYAMGWFRQAPGKEREFVAAISWNGSSTYYADSVKGRFTISRDNAKNTVYLQMNSLKPEDTAVYYCAANDLLVPELLMSRVEVYDYWGQGTQVTVSS: 6.52
VHH880 (VHH) VHH: QVQLQESGGGLVQAGGSLRLSCAASGRTFSDYAMGWFRQAPGKDREFVAAISWSGDRTYYADSVKGRFTISRDNAENTVYLQMNSLKPEDTAVYHCAANDLMVPELLMPRVESYDYWGQGTQVTVSS: 7.00
VHH897 (VHH) VHH: QVQLQESGGGLVQAGGSLRISCAASGRTFSDYAMGWFRQAPGKEREFVAAISWNGDNTYYADSVKGRFTISRDNAKNTVYLQMNSLKPEDTAVYYCAANDLAVPGLLMPRVETYDYWGQGTQVTVSS: 7.37
VHH895 (VHH) VHH: QVQLQESGGGLVQAGGSLRVSCAASGRALSDYAMGWFRQTPGKEREFVAAISWNGGNTYYADSVKGRFTISRDNAENTVYLQMNSLKPEDTAVYYCAANDLAVPGLLMPRVETYDYWGQGTQVTVSS: 6.10
VHH893 (VHH) VHH: QVQLQESGGGLVQAGGSLRLSCAASGFTFDDYAIGWFRQAPGKEREGVSCISSGDGGTYYADSVKGRFTISSDNAENTVALQMNSLKPEDTAVYYCAAVYGSCWDGLLYRTDSYEYDGWGQGTQVTVSS: 7.57
VHH871 (VHH) VHH: QVQLQESGGGLVQAGGSLRLSCAASGSIFSIHAMGWYRQAPGKQRELVAAITSGGSTNYGDSVKGRFTISEDNAKNTVYLQMNGLKPEDTAVYYCAADNDGLGYVYWGQGTQVTVSS: 6.70

// data source = paper PMC5376981
